Where do these numbers come from? They come from paper PMC11445558.

- testSystem: TRIM25 CC (Homo sapiens, UniProt Q14258 189-379)
- Sequence (Q14258 189-379): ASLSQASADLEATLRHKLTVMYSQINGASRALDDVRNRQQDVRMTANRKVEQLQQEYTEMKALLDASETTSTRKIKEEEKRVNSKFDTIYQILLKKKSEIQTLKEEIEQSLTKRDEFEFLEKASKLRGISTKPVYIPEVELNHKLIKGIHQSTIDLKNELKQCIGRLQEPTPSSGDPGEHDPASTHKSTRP
- assayExplanation: ITC; ITC: 20 mM MES pH 6.5, 75 mM NaCl, 0.5 mM TCEP, 20 C; protein NMR: 20 mM sodium phosphate pH 6.5, 150 mM NaCl, 2 mM TCEP, 293 K
- experimentalSetup: protein: recombinant; tags: His-Trx, cleaved (3C); chain copies: 2; hairpin
measuredParameter: pKd
Give bare numbers, as −log10 of the molar value.

Return pKd (reported value) for this binder: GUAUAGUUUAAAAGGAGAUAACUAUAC (structured_RNA) [pre-let-7a-1@2 (pre-let-7)]
5.49
